tested on: HIV-1 pseudotyped virus; experiment: HIV-1 pseudotyped virus assay (luciferase reporter gene, single cycle of infection); format: cell-based; details: Human immunodeficiency virus 1, CCR5, 72 h, read-out: Activity (antiviral activity, IC50)
MEASUREMENT TYPE: IC50

Here are 7 compounds together with their reported answers.
| COMPOUND | MEASUREMENT TYPE | MEASUREMENT |
| --- | --- | --- |
| C[C@@H]1CN(C(=O)c2ccccc2)CCN1C(=O)C(=O)c1ccc(-c2cc[nH]n2)cc1Cl | IC50 | < 5 µM |
| C[C@@H]1CN(C(=O)c2ccccc2)CCN1C(=O)C(=O)c1ccc(-c2cc[nH]n2)cc1N | IC50 | < 5 µM |
| Cc1cc(-n2ccnc2)ccc1C(=O)C(=O)N1CCN(C(=O)c2ccccc2)C[C@H]1C | IC50 | < 5 µM |
| Cc1nnc(-c2ccc(C(=O)C(=O)N3CCN(C(=O)c4ccccc4)C[C@H]3C)cc2)s1 | IC50 | < 5 µM |
| CC1CN(C(=O)c2ccccc2)CCN1S(=O)(=O)c1ccc(-c2ccccc2)s1 (centres unmarked) | IC50 | > 5 µM |
| C[C@@H]1CN(C(=O)c2ccccc2)CCN1C(=O)C(=O)c1ccc(-n2ccnc2)cc1 | IC50 | < 5 µM |
| CC1CN(C(=O)c2ccccc2)CCN1S(=O)(=O)c1ccc(-c2ncccn2)s1 (centres unmarked) | IC50 | < 5 µM |

Here is the next item to consider.
Record CC(=O)c1cccc(-c2ccc(S(=O)(=O)N3CCN(C(=O)c4ccccc4)CC3C)s2)n1 (centres unmarked) : what is its IC50 with HIV-1 pseudotyped virus? > 5 µM

----------
Tested on: HIV-1 pseudotyped virus
Experiment: HIV-1 pseudotyped virus assay (luciferase reporter gene, single cycle of infection)
Format: cell-based
Conditions: Human immunodeficiency virus 1, CCR5, 72 h, read-out: Activity (antiviral activity, IC50)
From the text: In this example are illustrated experimental procedures for determining biological activity, such as antiviral activity. For determining biological activity, an HIV-1 infection assay was used to determine the antiviral potency for compounds of the present invention. […] The compounds of the present invention being tested for antiviral activity were serially diluted and dose responses determined in duplicate in two separate experiments. […]
pIC50: −log10 of the molar value.
MEASUREMENT TYPE: pIC50

| COMPOUND | pIC50 |
| --- | --- |
| C[C@@H]1CN(C(=O)c2ccccc2)CCN1C(=O)C(=O)c1ccc(-c2cncs2)s1 [Example 179] | > 5.30 |

Hi, could you look up pIC50 for each item in my list?
1. C[C@@H]1CN(C(=O)c2ccccc2)CCN1C(=O)C(=O)c1ccc(N2CCCC2)cc1 [Example 211]
2. CC1CN(C(=O)c2ccccc2)CCN1S(=O)(=O)c1cccc(-n2cncn2)c1 (centres unmarked) [Example 114]
3. C[C@@H]1CN(C(=O)c2ccccc2)CCN1S(=O)(=O)c1ccc(-c2csnn2)cc1 [Example 134]

1. < 5.30
2. < 5.30
3. < 5.30

----------
system: HIV-1 pseudotyped virus; experiment: HIV-1 pseudotyped virus assay (luciferase reporter gene, single cycle of infection); assay type: cell-based; settings: Human immunodeficiency virus 1, CCR5, 72 h, read-out: Activity (antiviral activity, IC50)
For each entry below, report its IC50 value.

| COMPOUND | IC50 |
| --- | --- |
| CC1CN(C(=O)c2ccccc2)CCN1S(=O)(=O)c1ccc(-c2ccncc2)s1 (stereo not shown) | > 5 µM |
| CC1CN(C(=O)c2ccccc2)CCN1S(=O)(=O)c1ccc(-c2cccs2)s1 (stereo not shown) | < 5 µM |
| Cc1cccnc1-c1ccc(S(=O)(=O)N2CCN(C(=O)c3ccccc3)CC2C)s1 (stereo not shown) | > 5 µM |

Which IC50 value is on record for "C[C@@H]1CN(C(=O)c2ccccc2)CCN1S(=O)(=O)c1ccc(-c2cn(Cc3ccccc3)nn2)s1" ? > 5 µM

----------
tested on: HIV-1 pseudotyped virus; assay: HIV-1 pseudotyped virus assay (luciferase reporter gene, single cycle of infection); format: cell-based; conditions: Human immunodeficiency virus 1, CCR5, 72 h, read-out: Activity (antiviral activity, IC50)
MEASUREMENT TYPE: IC50

Report IC50 for every entry below.
1. C[C@@H]1CN(C(=O)c2ccccc2)CCN1C(=O)C(=O)c1ccc(-c2cncs2)cc1 [Example 176]
2. Cc1ccc(C#N)c(-c2ccc(S(=O)(=O)N3CCN(C(=O)c4ccccc4)CC3C)s2)n1 (stereo not shown) [Example 136]
3. CO/N=C(\c1ccccc1)N1CCN(C(=O)C(=O)c2ccc(-c3cnco3)cc2)[C@H](C)C1 [Example 106]
4. Cc1cc(-c2ccc(C(=O)C(=O)N3CCN(C(=O)c4ccccc4)C[C@H]3C)c(Cl)c2)on1 [Example 209]
5. C[C@@H]1CN(C(=O)c2ccccc2)CCN1C(=O)C(=O)c1cnc(-c2ccccc2)c(Cl)c1O [Example 242]
6. C[C@@H]1CN(C(=O)c2ccccc2)CCN1C(=O)C(=O)c1cccc(-c2cnco2)c1 [Example 251]

1. < 5 µM
2. > 5 µM
3. < 5 µM
4. < 5 µM
5. > 5 µM
6. > 5 µM

----------
system: HIV-1 pseudotyped virus; experiment: HIV-1 pseudotyped virus assay (luciferase reporter gene, single cycle of infection); assay type: cell-based; conditions: Human immunodeficiency virus 1, CCR5, 72 h, read-out: Activity (antiviral activity, IC50)
pIC50: −log10 of the molar value.
Answer each item with its documented pIC50.

Each molecule below has a recorded value; state its pIC50.
1. C[C@@H]1CN(C(=O)c2ccccc2)CCN1C(=O)C(=O)c1ccc(-c2nccn2C)cc1
2. C[C@@H]1CN(C(=O)c2ccccc2)CCN1C(=O)C(=O)c1ccc(-c2cc[nH]n2)c(Cl)c1N(C)C
3. CC1CN(C(=O)c2ccccc2)CCN1S(=O)(=O)c1ccc(-c2ccc(-c3ccon3)s2)s1 (stereo not shown)
4. Cc1cc(C(=O)C(=O)N2CCN(C(=O)c3ccccc3)C[C@H]2C)ccc1-n1cccn1
5. C[C@@H]1CN(C(=O)c2ccccc2)CCN1S(=O)(=O)c1ccc(-c2cc(C(F)(F)F)on2)s1
6. Cc1cc(-c2cc(Cl)c(C(=O)C(=O)N3CCN(C(=O)c4ccccc4)C[C@H]3C)c(Cl)c2)on1

1. < 5.30
2. > 5.30
3. < 5.30
4. < 5.30
5. < 5.30
6. < 5.30

# batch: return pIC50 for each of the 5 molecules below
1. CC(=O)c1ccc(-n2cc(-c3ccc(S(=O)(=O)N4CCN(C(=O)c5ccccc5)C[C@H]4C)s3)nn2)cc1
2. Cc1nc(-c2ccc(C(=O)C(=O)N3CCN(C(=O)c4ccccc4)C[C@H]3C)cc2)cs1
3. CC1CN(C(=O)c2ccccc2)CCN1S(=O)(=O)c1ccc(-c2cnco2)cc1 (stereo not shown)
4. Cc1ncc(-c2ccc(C(=O)C(=O)N3CCN(C(=O)c4ccccc4)C[C@H]3C)s2)s1
5. Cc1ccnc(-c2ccc(S(=O)(=O)N3CCN(C(=O)c4ccccc4)CC3C)s2)c1 (stereo not shown)

1. < 5.30
2. < 5.30
3. < 5.30
4. < 5.30
5. < 5.30

Look at each molecule and report its pIC50.
1. Cc1cccc(-c2ccc(S(=O)(=O)N3CCN(C(=O)c4ccccc4)CC3C)s2)n1 (stereo not shown)
2. Cc1cc(-n2cccn2)ccc1C(=O)C(=O)N1CCN(C(=O)c2ccccc2)C[C@H]1C
3. COc1cc(C(=O)C(=O)N2CCN(C(=O)c3ccccc3)C[C@H]2C)ccc1-c1cc[nH]n1
4. C[C@@H]1CN(C(=O)c2ccccc2)CCN1C(=O)C(=O)c1ccc(-c2cccs2)cc1
5. C[C@@H]1CN(C(=O)c2ccccc2)CCN1C(=O)C(=O)c1ccc(-c2cnco2)c(Cl)c1
6. CC1CN(C(=O)c2ccccc2)CCN1S(=O)(=O)c1ccc(-n2ccnn2)cc1 (stereo not shown)
7. CON(C)C(=O)c1ccc(S(=O)(=O)N2CCN(C(=O)c3ccccc3)CC2C)s1 (stereo not shown)

1: < 5.30; 2: < 5.30; 3: > 5.30; 4: > 5.30; 5: > 5.30; 6: < 5.30; 7: > 5.30

I have 8 molecules here; please give me pIC50 for each one.
1. COc1cc(-c2cc[nH]n2)ccc1C(=O)C(=O)N1CCN(C(=O)c2ccccc2)C[C@H]1C
2. CC1CN(C(=O)c2ccccc2)CCN1C(=O)C(=O)c1ccc(-c2ncccc2F)cc1 (stereo not shown)
3. C[C@@H]1CN(C(=O)c2ccccc2)CCN1C(=O)C(=O)c1ccc(N2CCOC2=O)cc1
4. Cc1c[nH]c(-n2cc(-c3ccc(S(=O)(=O)N4CCN(C(=O)c5ccccc5)C[C@H]4C)s3)nn2)n1
5. C[C@@H]1CN(C(=O)c2ccccc2)CCN1C(=O)C(=O)c1ccc(-c2ccsc2)cc1
6. C[C@@H]1CN(C(=O)c2ccccc2)CCN1C(=O)C(=O)c1cccc(-c2ncccn2)c1
7. C[C@@H]1CN(C(=O)c2ccccc2)CCN1C(=O)C(=O)c1ccc(-c2cccnc2)cc1
8. COc1cc(-c2onc(C)c2Cl)ccc1C(=O)C(=O)N1CCN(C(=O)c2ccccc2)C[C@H]1C

1. > 5.30
2. > 5.30
3. < 5.30
4. < 5.30
5. > 5.30
6. < 5.30
7. > 5.30
8. > 5.30
